Test system: M19-MEL
PROCEDURE_TEXT: NCI tumour cell line growth inhibition, 48 h
Calls of active or inactive are those of the source. Cut-off read from the data, not from the text of the source: active = GI50 up to about 1.1 µM and inactive = higher.
Parameter GI50: see the listing below.

Here's what some known entries look like.
>>> data_value("NC(=S)N/N=C/C(O[C@@H](/C=N/NC(N)=S)CO)n1cnc2c(N)ncnc21 (some centres not stated)")
"97.1 µM (inactive)"
>>> data_value("O=C(O)c1ccccc1C1c2ccc(Cl)cc2Oc2cc(Cl)ccc21")
"> 100 µM (inactive)"
>>> data_value("C=C(Nc1ccc(OC)cc1OC)C(=O)Cc1cccc[n+]1[O-]")
"> 100 µM (inactive)"
>>> data_value("Cc1ccc(-c2nnc3s/c(=C\\c4ccc(N(C)C)cc4)c(=O)n23)cc1")
"> 100 µM (inactive)"
>>> data_value("CC1=CC(=O)NCCN1C")
"> 100 µM (inactive)"
>>> data_value("O=C1C=C(Br)c2c(-c3ccccc3)oc3cccc1c23")
"> 60.1 µM (inactive)"

Now for a further compound.
Incoming: What value of measured GI50 is listed for CC#C[C@@]1(O)CCCC[C@@H]1O ?
Outgoing: > 100 µM (inactive)
